# MEASURED TARGET: T1, human Nectin-4 expressed on cells (human, UniProt Q96NY8 32-510)
# T1 construct: On SUM190, SUM185, MDA-MB-468 cells (endogenous) or transfected cells; 31-residue signal peptide left out; also called huN4; wild-type human Nectin-4
# T1 sequence: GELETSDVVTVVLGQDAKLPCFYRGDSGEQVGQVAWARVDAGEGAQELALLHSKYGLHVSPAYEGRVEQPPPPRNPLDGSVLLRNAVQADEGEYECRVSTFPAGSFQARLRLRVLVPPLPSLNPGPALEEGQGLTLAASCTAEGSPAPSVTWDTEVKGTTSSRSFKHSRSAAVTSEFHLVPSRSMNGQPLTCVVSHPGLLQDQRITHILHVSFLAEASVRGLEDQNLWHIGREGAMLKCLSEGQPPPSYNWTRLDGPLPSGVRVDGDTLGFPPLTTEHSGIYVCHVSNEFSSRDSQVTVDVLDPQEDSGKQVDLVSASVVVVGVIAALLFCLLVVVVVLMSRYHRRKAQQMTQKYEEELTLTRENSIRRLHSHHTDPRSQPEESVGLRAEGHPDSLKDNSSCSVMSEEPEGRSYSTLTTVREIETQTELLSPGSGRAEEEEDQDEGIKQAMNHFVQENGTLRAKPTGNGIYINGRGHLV
# RUN DESCRIPTION: flow cytometry on SUM190 cells, MedFI at saturation
Can you tell me Max MedFi for the items I'm about to list?
Numbers only, in MedFI.

BINDER	QUANTITY KIND	VALUE UNITS	RECORDED RESULT
H5L3 (antibody, human IgG1, kappa, V domains shown, Tested as human IgG1) VH: QVQLVQSGAEVKKPGASVKVSCKASGYIFTSYWMHWVKQRPGQGLEWMGEIDPSDSYTNYNQKFKGRVTMTLDKSTSTTYMELSSLRSEDTAVYYCARGYGNYGDYWGQGTLVTVSS VL: DVVMTQSALSNPVTPGEPASISCRSSKSLLHSNGITYLYWYLQKPGQSPQLLIYQMSNLASGVPDRFSSSGSGTDFTLKISRVEAEDVGVYYCAQNLELPWTFGGGTKVEIKR	Max MedFi	MedFI	27100

Hey, quick one: what's Max MedFi for each of these?
1. H1L0 (antibody, human IgG1, V domains shown, human IgG1 isotype) VH: QVQLVQSGAEVKKPGASVKVSCKASGYTFTSYWMHWVRQAPGQGLEWMGEIDPSDSYTNYNQKFKGRVTMTLDTSTSTTYMELSSLRSEDTAVYYCARGYGNYGDYWGQGTLVTVSS VL: DIVMTQSPLSLPVTPGEPASISCRSSKSLLHSNGITYLYWYLQKPGQSPQLLIYQMSNLASGVPDRFSGSGSGTDFTLKISRVEAEDVGVYYCAQNLELPWTFGGGTKVEIK
2. H4L1 (antibody, human IgG1, V domains shown, human IgG1 isotype) VH: QVQLVQSGAEVKKPGASVKVSCKASGYIFTSYWMHWVKQAPGQGLEWMGEIDPSDSYTNYNQKFKGRVTMTLDKSTSTTYMELSSLRSEDTAVYYCARGYGNYGDYWGQGTLVTVSS VL: DVVMTQSPLSLPVTPGEPASISCRSSKSLLHSNGITYLYWYLQKPGQSPQLLIYQMSNLASGVPDRFSSSGSGTDFTLKISRVEAEDVGVYYCAQNLELPWTFGGGTKVEIK

1: 17300; 2: 18400

Source: patent US20250297004A1
